Molecular target: T1, human eIF4E1a protein (human, UniProt P06730 1-217)
T1 construct: human eukaryotic translation initiation factor 4E, isoform called eIF4E1a; Extinction coefficient used: 52,940 M^-1 cm^-1; also called heIF4E1a; eukaryotic initiation factor 4E
T1 sequence (P06730 whole entry, canonical isoform): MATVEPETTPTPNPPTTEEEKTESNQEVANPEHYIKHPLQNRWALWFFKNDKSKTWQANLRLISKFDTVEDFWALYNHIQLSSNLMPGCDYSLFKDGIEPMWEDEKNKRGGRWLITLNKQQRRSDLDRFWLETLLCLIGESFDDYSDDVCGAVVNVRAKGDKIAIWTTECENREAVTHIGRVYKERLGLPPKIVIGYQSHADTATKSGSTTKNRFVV
Experiment: differential scanning fluorimetry (thermal shift); non-reducing: 50 mM HEPES-KOH pH 7.2, 100 mM KCl, no TCEP; 5 µM eIF4E1a with 0-50 µM h4E-T(1-68) variant incubated without TCEP (up to 48 h, 4 or 20 °C), or SEC-purified dimers at 1:1; SYPRO Orange; shift of the Tm of eIF4E1a
Details: both partners purified
Bridge positions count the residues as written; N and C are the ends.
measured_quantity: ΔTm of eIF4E at eIF4E:h4E-T(1-68) 1:1 (°C)
Write the value in °C as a bare number.

Please review the following examples before continuing.
| protein | measured_quantity | value_unit | observed_measurement |
| --- | --- | --- | --- |
| human 4E-T(1-68) C50A (domain or fragment, UniProt Q9NRA8 1-68, looked up, human 4E-Transporter (4E-T), N-terminal fragment, residues 1-68; Without TCEP the samples are a mixture of monomer and disulphide-linked dimer; also called C50A mutant) MDRRSMGETESGDAFLDLKKPPASKCPHRYTKEELLDIKELPHSKQRPSALSEKYDSDGVWDPEKWHA | ΔTm of eIF4E at eIF4E:h4E-T(1-68) 1:1 | °C | 10.5 |
| human 4E-T(1-68) C26A (domain or fragment, UniProt Q9NRA8 1-68, looked up, human 4E-Transporter (4E-T), N-terminal fragment, residues 1-68; Without TCEP the samples are a mixture of monomer and disulphide-linked dimer; also called C26A mutant; C26 mutant) MDRRSMGETESGDAFLDLKKPPASKAPHRYTKEELLDIKELPHSKQRPSCLSEKYDSDGVWDPEKWHA | ΔTm of eIF4E at eIF4E:h4E-T(1-68) 1:1 | °C | 9 |
| human 4E-T(1-68) C26AC50A (domain or fragment, UniProt Q9NRA8 1-68, looked up, human 4E-Transporter (4E-T), N-terminal fragment, residues 1-68; also called double cysteine mutant) MDRRSMGETESGDAFLDLKKPPASKAPHRYTKEELLDIKELPHSKQRPSALSEKYDSDGVWDPEKWHA | ΔTm of eIF4E at eIF4E:h4E-T(1-68) 1:1 | °C | 10.5 |

Lab note: human 4E-T(1-68) wild type with the intramolecular disulphide bond Cys26-Cys50 (monomer SS) (domain or fragment, UniProt Q9NRA8 1-68, looked up, disulfide 26-50, human 4E-Transporter (4E-T), N-terminal fragment, residues 1-68; Same construct as m2, oxidised; The samples without TCEP may still hold some monomer SH and a small fraction of dimer; also called h4E-T(1-68) WT under non-reducing conditions; disulphide loop form) MDRRSMGETESGDAFLDLKKPPASKCPHRYTKEELLDIKELPHSKQRPSCLSEKYDSDGVWDPEKWHA gave ΔTm of eIF4E at eIF4E:h4E-T(1-68) 1:1 of 1
